// data source = patent US20230203029A1

This listing pairs compounds with measured IC50.
- ASSAY SYSTEM: Ba/F3 Pro B-cell line expressing TEL-human Tyro3 fusion domain (Homo sapiens, UniProt Q06418)
- Sequence (Q06418 518-790 limits assumed): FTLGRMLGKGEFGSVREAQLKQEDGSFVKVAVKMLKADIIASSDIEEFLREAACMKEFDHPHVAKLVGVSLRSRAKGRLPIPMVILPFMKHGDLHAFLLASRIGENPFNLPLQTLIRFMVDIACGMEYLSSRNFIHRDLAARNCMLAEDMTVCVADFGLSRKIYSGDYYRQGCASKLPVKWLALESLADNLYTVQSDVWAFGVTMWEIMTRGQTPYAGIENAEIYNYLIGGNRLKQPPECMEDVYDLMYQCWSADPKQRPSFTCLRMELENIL
- CONDITION: cell survival, 48 h, CellTiter-Glo
Answer format: numeric, nM implied, no suffix.

INSERT INTO assay_data (given_smiles, metric, measure_unit, experimental_result) VALUES
  ('Cc1cc(NC(=O)c2cccn(-c3ccccc3)c2=O)ccc1Oc1ccnc2cnc(N3CCNCC3)cc12', 'IC50', 'nM', 1330),
  ('Cc1cc(NC(=O)c2cccn(-c3ccccc3)c2=O)ccc1Oc1ccnc2cnc(C(=O)NC3CCN(C)CC3)cc12', 'IC50', 'nM', 128),
  ('CC(C)n1cc(C(=O)Nc2ccc(Oc3ccnc4cnc(C(=O)NC5CCN(C)CC5)cc34)cc2)c(=O)n(-c2ccc(F)cn2)c1=O', 'IC50', 'nM', 252),
  ('CC(C)n1cc(C(=O)Nc2ccc(Oc3ccnc4cnc(C(=O)NC5CCN(C(=O)OC(C)(C)C)CC5)cc34)cn2)c(=O)n(-c2ccc(F)cc2)c1=O', 'IC50', 'nM', 881);

Consider now this further compound.
Query string: Endpoint output: IC50 of `CN1CCC(NC(=O)c2cc3c(Oc4ccc(NC(=O)c5cn(C6CC6)c(=O)n(-c6ccc(F)cc6)c5=O)cc4)ccnc3cn2)CC1` . Value?
Result string: 673

====

IC50 reference
- ASSAY SYSTEM: Ba/F3 Pro B-cell line expressing TEL-human Tyro3 fusion domain (Homo sapiens, UniProt Q06418)
- CONDITION: cell survival, 48 h, CellTiter-Glo
Field: numeric (nM). Do not append units.

# annotated cases, reported IC50 shown
INSERT INTO measurements (given_smiles, metric, measure_unit, experimental_result) VALUES
  ('CC(C)n1cc(C(=O)Nc2ccc(Oc3ccnc4cnc(C(=O)NC5CCN(C)CC5)cc34)cn2)c(=O)n(-c2ccc(F)cc2)c1=O', 'IC50', 'nM', 107),
  ('CC(C)n1cc(C(=O)Nc2ccc(Oc3ccnc4cnc(C(=O)NC5CCN(C)CC5)cc34)cc2)c(=O)n(-c2ccc(F)cc2)c1=O', 'IC50', 'nM', 120);

Query string: // IC50 lookup, key: `Cn1cc(C(=O)Nc2ccc(Oc3ccnc4cnc(N5CCNCC5)cc34)cc2)c(=O)c(-c2ccc(F)cc2)c1`
Result string: 179

====

- ASSAY SYSTEM: human MERTK cytoplasmic domain (Homo sapiens, UniProt Q12866)
- Construct: human MERTK cytoplasmic domain (Carna Biosciences 08-108); purchased Carna Biosciences 08-108
- Sequence (Q12866 527-999): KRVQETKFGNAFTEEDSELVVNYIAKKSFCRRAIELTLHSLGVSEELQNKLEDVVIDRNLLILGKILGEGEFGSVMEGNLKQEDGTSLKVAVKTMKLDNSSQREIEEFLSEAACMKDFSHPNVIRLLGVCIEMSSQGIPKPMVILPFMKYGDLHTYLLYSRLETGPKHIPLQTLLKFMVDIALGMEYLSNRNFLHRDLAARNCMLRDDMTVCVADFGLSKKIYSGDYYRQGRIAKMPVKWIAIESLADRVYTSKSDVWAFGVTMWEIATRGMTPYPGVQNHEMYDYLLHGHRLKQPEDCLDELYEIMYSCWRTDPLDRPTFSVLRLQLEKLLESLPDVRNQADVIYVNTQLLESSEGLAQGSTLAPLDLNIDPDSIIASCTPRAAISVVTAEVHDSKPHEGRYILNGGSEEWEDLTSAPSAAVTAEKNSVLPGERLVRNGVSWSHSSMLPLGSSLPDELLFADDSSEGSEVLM
- MEASUREMENT NOTES: biochemical
- CONDITION: 30 uM ATP; read-out: Assay 1a Mer IC50 30 uM ATP
- Method: Assay 1a—MERTK HTRF KinEASE-TK Assay The enzymatic reaction was carried out for 30 min at room temperature. 10 μL TK Antibody-Cryptate/Streptavidin-XL665 (Cisbio 610SAXLG) was then added for 60 min, including EDTA containing detection buffer (Cisbio 62SDBRDF) to stop the reaction.
# IC50 per record follows
# number only, unit nM dropped from output

INSERT INTO measurements (given_smiles, assay_system, metric, experimental_result) VALUES
  ('CC(C)n1cc(C(=O)Nc2ccc(Oc3ccnc4cnc(N5CCN(C6COC6)CC5)cc34)cn2)c(=O)c(-c2ccc(F)cc2)c1', 'human MERTK cytoplasmic domain (Homo sapiens, UniProt Q12866)', 'IC50', 1),
  ('CN1CCC(n2cc(-c3cc4c(Nc5ccc(NC(=O)c6cccn(-c7ccccc7)c6=O)cc5)ccnc4cn3)cn2)CC1', 'human MERTK cytoplasmic domain (Homo sapiens, UniProt Q12866)', 'IC50', 37),
  ('CN1CCC(NC(=O)c2cc3c(Oc4ccc(NC(=O)c5cccn(-c6ccc(F)cc6)c5=O)nc4)ccnc3cn2)CC1', 'human MERTK cytoplasmic domain (Homo sapiens, UniProt Q12866)', 'IC50', 4),
  ('O=C(Nc1ccc(Oc2ccnc3cnc(N4CCNCC4)cc23)c(F)c1)c1cccn(-c2ccccc2)c1=O', 'human MERTK cytoplasmic domain (Homo sapiens, UniProt Q12866)', 'IC50', 6),
  ('CC(C)n1cc(C(=O)Nc2ccc(Oc3ccnc4cnc(N5CCNCC5)cc34)cc2)c(=O)c(-c2ccc(F)cc2)c1', 'human MERTK cytoplasmic domain (Homo sapiens, UniProt Q12866)', 'IC50', 1),
  ('CN1CCC(NC(=O)c2cc3c(Oc4ccc(NC(=O)c5cccn(-c6ccccn6)c5=O)cc4)ccnc3cn2)CC1', 'human MERTK cytoplasmic domain (Homo sapiens, UniProt Q12866)', 'IC50', 154);

Query string: Query (compound): `CN1CCC(NC(=O)c2cc3c(Oc4ccc(NC(=O)c5cn(C6CC6)c(=O)n(-c6ccc(F)cc6)c5=O)cc4)ccnc3cn2)CC1` ; field requested: IC50
Result string: 22

Query string: Form field: reported IC50 of `CC(C)n1cc(C(=O)Nc2ccc(Oc3ccnc4cnc(C(=O)NC5CCN(C)CC5)cc34)cc2)c(=O)c(-c2ccc(F)cc2)c1`
Result string: 2

Query string: For `O=C(Nc1ccc(Oc2ccnc3cnc(C4=CCN(C5COC5)CC4)cc23)cn1)c1cccn(-c2ccc(F)cc2)c1=O` , what is its reported IC50?
Result string: 3

====

Let's look at some compounds and their measured pIC50.
- ASSAY SYSTEM: human MERTK cytoplasmic domain (Homo sapiens, UniProt Q12866)
- Construct: human MERTK cytoplasmic domain (Carna Biosciences 08-108); purchased Carna Biosciences 08-108
- MEASUREMENT NOTES: biochemical
- CONDITION: 30 uM ATP; * Maximal inhibition achieved 40%; read-out: Assay 1a Mer IC50 30 uM ATP
- Description: Assay 1a—MERTK HTRF KinEASE-TK Assay The enzymatic reaction was carried out for 30 min at room temperature. 10 μL TK Antibody-Cryptate/Streptavidin-XL665 (Cisbio 610SAXLG) was then added for 60 min, including EDTA containing detection buffer (Cisbio 62SDBRDF) to stop the reaction.
Kindly note that pIC50 refers to -log10 of the concentration in mol/L and answer with the value alone.

Solved cases below.
INSERT INTO results (given_smiles, experimental_result) VALUES
  ('Cn1cc(-c2cc3c(Nc4ccc(NC(=O)c5cccn(-c6ccccc6)c5=O)cc4)ccnc3cn2)cn1', 8.52),
  ('NC(=O)c1cc2c(Nc3ccc(NC(=O)c4cccn(-c5ccccc5)c4=O)cc3)ccnc2cn1', 7.77);

Shift focus to the following entry.
Query string: Consider the compound shown here: `CNC(=O)c1cc2c(Nc3ccc(NC(=O)c4cccn(-c5ccccc5)c4=O)cc3)ccnc2cn1` What is its recorded pIC50?
Result string: 7.96

====

- ASSAY SYSTEM: recombinant human MERTK expressed in live cells (HEK 293, MERTK-Nanoluc fusion vector) (Homo sapiens)
- Construct: host or cells: HEK 293
- Sequence (Q12866 21-999): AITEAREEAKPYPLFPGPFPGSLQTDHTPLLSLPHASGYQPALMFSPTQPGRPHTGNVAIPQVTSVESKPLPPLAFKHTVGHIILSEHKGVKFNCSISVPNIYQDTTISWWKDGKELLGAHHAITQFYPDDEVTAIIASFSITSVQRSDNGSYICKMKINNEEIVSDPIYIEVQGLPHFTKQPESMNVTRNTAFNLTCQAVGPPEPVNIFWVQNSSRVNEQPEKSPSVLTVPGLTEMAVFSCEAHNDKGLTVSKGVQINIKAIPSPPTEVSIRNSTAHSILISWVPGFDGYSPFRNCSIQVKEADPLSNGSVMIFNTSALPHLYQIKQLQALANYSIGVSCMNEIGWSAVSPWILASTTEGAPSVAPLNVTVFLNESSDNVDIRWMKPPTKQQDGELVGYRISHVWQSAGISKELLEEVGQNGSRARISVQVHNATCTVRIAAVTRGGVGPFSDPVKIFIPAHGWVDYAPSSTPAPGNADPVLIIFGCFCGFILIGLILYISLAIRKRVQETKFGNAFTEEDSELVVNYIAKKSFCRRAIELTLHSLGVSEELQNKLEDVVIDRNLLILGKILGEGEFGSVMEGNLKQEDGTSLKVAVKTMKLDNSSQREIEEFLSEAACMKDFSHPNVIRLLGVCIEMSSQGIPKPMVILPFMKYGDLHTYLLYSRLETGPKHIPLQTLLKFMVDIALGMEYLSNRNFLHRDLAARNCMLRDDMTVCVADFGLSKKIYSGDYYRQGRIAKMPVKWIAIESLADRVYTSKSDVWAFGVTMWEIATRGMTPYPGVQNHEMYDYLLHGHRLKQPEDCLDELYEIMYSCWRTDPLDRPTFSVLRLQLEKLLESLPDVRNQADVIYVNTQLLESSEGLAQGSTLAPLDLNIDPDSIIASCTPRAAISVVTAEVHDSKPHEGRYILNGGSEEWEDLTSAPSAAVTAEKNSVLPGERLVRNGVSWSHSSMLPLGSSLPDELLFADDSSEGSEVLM
- MEASUREMENT NOTES: Assay 2 MERTK cellular target engagement (NanoBRET TE) assay
- Assay type: cell-based
- CONDITION: HEK 293 cells, tracer K9, 2 h at 37° C.; read-out: Assay 2 Cell TE MER IC50
METRIC: IC50

INSERT INTO results (given_smiles, metric, experimental_result) VALUES
  ('Cc1c(C(=O)Nc2ccc(Nc3ccnc4cnc(N5CCNCC5)cc34)cc2)c(=O)n(-c2ccccc2)n1C', 'IC50', '2190 nM'),
  ('O=C(Nc1ccc(Nc2ccnc3cnc(N4CCCNCC4)cc23)cc1)c1cccn(-c2ccccc2)c1=O', 'IC50', '23.7 nM'),
  ('O=C(Nc1ccc(Oc2ccnc3cnc(N4CCNCC4)cc23)cc1)c1cccn(-c2ccc(F)cc2)c1=O', 'IC50', '18.3 nM');

Turning now to a further molecule:
Query string: State the recorded IC50 for this entry: `O=C(Nc1ccc(Nc2ccnc3cnc(N4CCNCC4)cc23)cc1)c1cccn(-c2ccc(F)cc2)c1=O`
Result string: 28 nM

====

- ASSAY SYSTEM: human MERTK cytoplasmic domain (Homo sapiens, UniProt Q12866)
- Construct: human MERTK cytoplasmic domain (Carna Biosciences 08-108); purchased Carna Biosciences 08-108
- MEASUREMENT NOTES: biochemical
- CONDITION: 30 uM ATP; read-out: Assay 1a Mer IC50 30 uM ATP
- Protocol: Assay 1a—MERTK HTRF KinEASE-TK Assay The enzymatic reaction was carried out for 30 min at room temperature. 10 μL TK Antibody-Cryptate/Streptavidin-XL665 (Cisbio 610SAXLG) was then added for 60 min, including EDTA containing detection buffer (Cisbio 62SDBRDF) to stop the reaction.
Let's look at some compounds and their measured IC50.
The reply should contain only the number, in nM.

Example entries and their recorded answers appear below.
INSERT INTO measurements (given_smiles, metric, measure_unit, experimental_result) VALUES
  ('CC(C)n1cc(C(=O)Nc2ccc(Oc3ccnc4cnc(N5CCNCC5)cc34)cc2)c(=O)n(-c2ccc(F)cc2)c1=O', 'IC50', 'nM', 3),
  ('CN1CCC(C(=O)Nc2cc3c(Oc4ccc(NC(=O)c5cccn(-c6ccc(F)cc6)c5=O)nc4)ccnc3cn2)CC1', 'IC50', 'nM', 1),
  ('O=C(Nc1ccc(Nc2ccnc3cnc(N4CCNCC4)cc23)cc1)c1cccn(-c2ccc(F)cc2)c1=O', 'IC50', 'nM', 20),
  ('O=C(Nc1ccc(Oc2ccnc3cnc(N4CCNCC4)cc23)cc1)c1cccn(-c2ccccc2)c1=O', 'IC50', 'nM', 11),
  ('CC(C)n1cc(C(=O)Nc2ccc(Nc3ccnc4cnc(N5CCNCC5)cc34)cc2)c(=O)n(-c2ccccc2)c1=O', 'IC50', 'nM', 182),
  ('CN1CCC(NC(=O)c2cc3c(Oc4ccc(NC(=O)c5cccn(-c6ccccc6)c5=O)cc4F)ccnc3cn2)CC1', 'IC50', 'nM', 8);

Continue with the compound presented below.
Query string: Entry `O=C(Nc1ccc(Oc2ccnc3cnc(N4CCN(C5COC5)CC4)cc23)cn1)c1cccn(-c2ccc(F)cc2)c1=O` has what IC50?
Result string: 2
